Readings of Growth Rate for the listed compounds
# Test system: U2OS
# test_protocol: Incucyte cell viability with U2OS; also: filed as whole numbers so only -1 and 0 and 1 occur
# Type: toxicity, cell-based
# stated_conditions: human, 12 h, 10 µM, compound concentration 10 uM, replicate number 2, timepoint 12 hours

compound: Cc1ccc(-c2cnc([C@@]3(O)CC[C@H](C(=O)O)C(C)(C)C3)s2)cc1Nc1cccc(C(F)(F)F)n1
Growth Rate: 1
//
compound: CN1CCN(C(=O)C(C)(C)c2ccc(C(=O)Nc3cn4cc(-c5ccncc5)ccc4n3)cc2)CC1
Growth Rate: 1
//
compound: CCCS(=O)(=O)Nc1ccc(F)c(C(=O)c2c[nH]c3ncc(Cl)cc23)c1F
Growth Rate: 1
//
compound: Cn1nc(C(F)(F)F)cc1-c1cnc(N2CCc3cc(S(=O)(=O)Nc4c(F)cc(Cl)cc4F)cc(N4CCCC4=O)c32)nc1
Growth Rate: 0
//
compound: OCCn1cc(-c2cnc3nnn(Cc4ccc5ncccc5c4)c3n2)cn1
Growth Rate: 0
//
compound: CC[C@@H]1CN2C(=O)N(C)c3nc(-c4ccccc4)[nH]c3C2=N1.Cl
Growth Rate: 0
//
compound: CCCc1c(OCCCOc2ccc(OCC(=O)O)cc2)ccc(C(C)=O)c1O
Growth Rate: 1
//
compound: Cl.O=c1c2cccn2c2ccccc2n1CCCN1CCC(c2ccc(Cl)cc2)CC1
Growth Rate: 1
//
compound: CN1C2CCC1CC(OC(c1ccc(F)cc1)c1ccc(F)cc1)C2.Cl (centres undefined)
Growth Rate: 0

====

# Test system: HEK-293T
# test_protocol: Multiplex assay against HEK293T
# Type: toxicity, cell-based
# stated_conditions: human, 24 h, 10 µM, compound concentration 10 uM, replicate 1
Note to self: use Met only for Population Pyknosed Nuclei (%) readings below 60%; a reading exactly at 60% still gets Not met.

molecule: Cc1ccc2nc(NCCN)c3ncc(C)n3c2c1.O=C(O)C(F)(F)F.O=C(O)C(F)(F)F
label_value: Met
//
molecule: CCOC(=O)c1c(C)[nH]c2ccc3c(c12)CN1CCc2cc(OC)ccc2C1O3 (stereo not given)
label_value: Not met
//
molecule: COCC(=O)NC/C=C/c1ccc2ncnc(Nc3ccc(Oc4ccc(C)nc4)c(C)c3)c2c1
label_value: Met
//
molecule: Cc1cc(C)c(S(=O)(=O)N(Cc2ccc(-c3cccc(S(C)(=O)=O)c3)cc2)Cc2ccc(C(F)(F)F)o2)c(C)c1
label_value: Met
//
molecule: CN(C)C(=O)C(CCN1CCC(O)(c2ccc(Cl)cc2)CC1)(c1ccccc1)c1ccccc1.Cl [LOPERAMIDE HYDROCHLORIDE]
label_value: Not met
//
molecule: Cl.Oc1ccc2c3c1O[C@H]1c4[nH]c5c(c4C[C@@]4(O)[C@@H](C2)N(CC2CC2)CC[C@]314)C[C@@]1(O)[C@H]2Cc3ccc(O)c4c3[C@@]1(CCN2CC1CC1)[C@H]5O4
label_value: Met
//
molecule: CCc1cccc(CC)c1NC(=O)c1nn(C)c2c1CCc1cnc(Nc3ccc(C(=O)NC4CCN(C)CC4)cc3OC(F)(F)F)nc1-2
label_value: Met
//
molecule: Cc1ccc(C(=O)Nc2cccc(C(F)(F)F)c2)cc1Nc1nc(-c2cccnc2)nc2c1cnn2C
label_value: Not met
//
molecule: CCc1cccc(CC)c1NC(=O)c1nn(C)c2c1CCc1cnc(Nc3ccc(N4CCN(C)CC4)cc3OC)nc1-2
label_value: Met
//
molecule: O=C(Cc1ccc(-c2ccc(OCCN3CCOCC3)cc2)cn1)NCc1ccccc1
label_value: Not met
//
molecule: COc1ccc(-c2ccc3c(N4CCOCC4)nc(N4C[C@@H](C)O[C@@H](C)C4)nc3n2)cc1CO
label_value: Met
//
molecule: CN1C2CCC1CC(OC(c1ccc(F)cc1)c1ccc(F)cc1)C2.Cl (stereo not given)
label_value: Not met
//
molecule: CN1CCN(C(=O)C(C)(C)c2ccc(C(=O)Nc3cn4cc(-c5cc(C(C)(C)C)cc(C(C)(C)C)c5)ccc4n3)cc2)CC1
label_value: Met
//
molecule: CCn1cc(-c2ccnc3[nH]c(-c4cccc(CN(C)C)c4)cc23)c(-c2ccc(NC(=O)N(C)C)cc2)n1
label_value: Met
